system: NOMO1; assay: cell viability relative to DMSO control; higher = less cytotoxic; settings: RPMI 5 mM glucose + 10% dialyzed FBS; 48 h; 0.0211 µM
Measurement Type: cell viability (%)
# unit: % | format: bare number

**Q:** Recorded cell viability of Nc1ccc([S+](=O)([O-])Nc2ccnn2-c2ccccc2)cc1 , please.
**A:** 95.1

**Q:** Recorded cell viability of OCC(O)C(O)C(O)CO (stereo not given) , please.
**A:** 96.2

**Q:** Recorded cell viability of COC(=O)c1ccc2c(c1)NC(=O)/C2=C(\Nc1ccc(N(C)C(=O)CN2CCN(C)CC2)cc1)c1ccccc1 , please.
**A:** 90.8

**Q:** Recorded cell viability of CNC(=O)c1ccc(Nc2cc(Nc3ccccc3[S+](=O)([O-])C(C)C)c3cc[nH]c3n2)nc1 , please.
**A:** 106

**Q:** Recorded cell viability of CC(=O)Oc1ccccc1C(=O)Nc1ncc([N+](=O)[O-])s1 , please.
**A:** 86.3
